tested on: HCV replicon cells; assay: Cell-based HCV replicon assay (replicon RNA level by real time PCR, Taqman); conditions: Hepatitis C virus, 72 h, HCV replicon cells, harvested day 3, replicon RNA by real time PCR; reported as range class; read-out: EC90 (μM) range
READOUT_NAME: EC90

Worked cases, EC90 given:
>>> print(df.to_string())
                                   compound    result
0  CCCOCCNc1nc(Cl)c(-c2nc3ccccc3s2)c(N[C@@H]2C[C@H](CO)[C@@H](O)[C@H]2O)n1 [Example 226]  < 0.5 µM
1  CO[C@@H](C)CNc1nc(Cl)c(-c2nc3ccccc3s2)c(N[C@@H]2C[C@H](CO)[C@@H](O)[C@H]2O)n1 [Example 228]  < 0.5 µM
2  CNc1nc(C)c(-c2cc3cc(OC)nc(C)c3o2)c(N[C@@H]2C[C@H](CO)[C@@H](O)[C@H]2O)n1 [Example 17]  < 0.5 µM
3  Nc1nc(Cl)c(-c2nc3ccc(Cl)cc3s2)c(N[C@@H]2C[C@H](CO)[C@@H](O)[C@H]2O)n1 [Example 188]    > 5 µM
4  CNc1nc(Cl)c(-c2nc3ccccc3s2)c(N[C@@H]2C[C@H](CO)[C@@H](O)[C@H]2O)n1 [Example 403]  < 0.5 µM
5  OC[C@H]1C[C@@H](Nc2nc(NCCF)nc(Cl)c2-c2nc3ccccc3s2)[C@H](O)[C@@H]1O [Example 213]  < 0.5 µM
6  Nc1nc(Cl)c(-c2cnccn2)c(N[C@@H]2C[C@H](CO)[C@@H](O)[C@H]2O)n1 [Example 159]    > 5 µM
7  CC1(C)O[C@@H]2[C@@H](CO)C[C@@H](Nc3nc(N)nc(Cl)c3-c3nc4ccccc4s3)[C@@H]2O1 [Example 184]  < 0.5 µM
8  CC(=O)c1ccc(-c2c(Cl)nc(N)nc2N[C@@H]2C[C@H](CO)[C@@H](O)[C@H]2O)s1 [Example 154]    > 5 µM
9  CCOc1cc2cc(-c3c(Cl)nc(NCC(F)(F)F)nc3N[C@@H]3C[C@H](CO)[C@@H](O)[C@H]3O)oc2c(C)n1 [Example 20]  < 0.5 µM

Return reported EC90 values for all items listed beneath this line.
1. COCCNc1nc(Cl)c(-c2cc3cc(OC)nc(C)c3o2)c(N[C@@H]2C[C@H](CO)[C@@H](O)[C@H]2O)n1 [Example 18]
2. CNc1nc(C)c(-c2nc3ccccc3s2)c(N[C@@H]2C[C@H](CO)[C@@H](O)[C@H]2O)n1 [Example 319]
3. CC(=O)OCCNc1nc(C)c(-c2nc3ccccc3s2)c(N[C@@H]2C[C@H](CO)[C@@H](O)[C@H]2O)n1 [Example 211]

**A:**
["< 0.5 µM", "< 0.5 µM", "< 0.5 µM"]

**Q:** Name the recorded EC90 for Nc1nc(Cl)c(-c2cc3c(F)cncc3o2)c(N[C@@H]2C[C@H](CO)[C@@H](O)[C@H]2O)n1 [Example 303] .
**A:** 0.5 to 5 µM
